Cited source: PubChem BioAssay AID248

Each entry below carries its recorded T/C.
Test system: L1210 leukemia ip in BDF1 mice, survival T/C
Test Description: NCI In Vivo Anticancer Drug Screen. Data for tumor model L1210 Leukemia (intraperitoneal) in B6D2F1 (BDF1) mice
Setup Conditions: endpoint: mean survival time; dose: 100.0 mg/kg/injection; schedule: Q04DX003 (ip); vehicle: saline with Tween-80; higher = longer survival
Toxic doses and inconclusive results are not listed.

Worked cases, T/C given:
Looking up CCC(C)C(C(=O)O)c1ccccc1 (stereo not given) , I see its T/C listed as 100 % of control

Looking up CSc1ccc(NS(=O)(=O)CCNC(=O)C(O)C(C)(C)CO)cc1 (stereo not given) , I see its T/C listed as 104 % of control

Looking up CC(=O)OC1CCC(C)(C2CCC3(C)C(C(C)CCCC(C)C)CCC3C2CC(=O)O)C(=O)C1 (stereo not given) , I see its T/C listed as 87 % of control

Looking up CCN(CC)C(=O)Nc1cccc(O)c1 , I see its T/C listed as 94 % of control

We next turn to a different compound, shown below.
Looking up N=C(OCCCO)C(=N)OCCCO , I see its T/C listed as 115 % of control

###

Test system: L1210 leukemia ip in BDF1 mice, survival T/C
Test Description: NCI In Vivo Anticancer Drug Screen. Data for tumor model L1210 Leukemia (intraperitoneal) in B6D2F1 (BDF1) mice
Setup Conditions: endpoint: mean survival time; dose: 400.0 mg/kg/injection; schedule: Q04DX002 (ip); vehicle: saline with Tween-80; higher = longer survival
Inconclusive results and toxic doses are left out.
Quantity Measured: T/C

Hey, L1210 leukemia ip in BDF1 mice, survival T/C data for c1cc[c]([Sn]([c]2ccccc2)[c]2ccccc2)cc1.c1ccc([Si](c2ccccc2)c2ccccc2)cc1 : T/C came out at 86 % of control

Hey, L1210 leukemia ip in BDF1 mice, survival T/C data for O=C(Nc1ccccc1)OC1CCCCC1OC(=O)Nc1ccccc1 (stereo unspecified) : T/C came out at 97 % of control

Hey, L1210 leukemia ip in BDF1 mice, survival T/C data for O=[N+]([O-])c1ccc(OC(=S)N2CCOCC2)cc1 : T/C came out at 101 % of control

---
Hey, L1210 leukemia ip in BDF1 mice, survival T/C data for CC(=O)[C@H]1CC[C@H]2[C@@H]3CC[C@@H]4C[C@@H](O)CC[C@]4(C)[C@H]3CC[C@]12C : T/C came out at 90 % of control

Hey, L1210 leukemia ip in BDF1 mice, survival T/C data for CC1(C)CC(=O)CC(C)(C)ON1 : T/C came out at 99 % of control

Hey, L1210 leukemia ip in BDF1 mice, survival T/C data for c1ccc2c(c1)NC(OC1CCCCC1)S2 (stereo unspecified) : T/C came out at 90 % of control

Hey, L1210 leukemia ip in BDF1 mice, survival T/C data for Cc1ccc(S(=O)(=O)N(c2cc([N+](=O)[O-])ccc2Br)S(=O)(=O)c2ccc(C)cc2)cc1 : T/C came out at 88 % of control

Hey, L1210 leukemia ip in BDF1 mice, survival T/C data for CCCCCSP(=S)(SCCCCC)c1ccccc1 : T/C came out at 99 % of control

Hey, L1210 leukemia ip in BDF1 mice, survival T/C data for COc1ccc(C(=O)/C=C/c2cccc3ccccc23)cc1 : T/C came out at 86 % of control

Hey, L1210 leukemia ip in BDF1 mice, survival T/C data for C[Si](C)(C)Cc1cccc(F)c1 : T/C came out at 97 % of control

Hey, L1210 leukemia ip in BDF1 mice, survival T/C data for [CH3][Ge]([CH3])([CH3])[CH2]CCl : T/C came out at 98 % of control

###

Test system: L1210 leukemia ip in BDF1 mice, survival T/C
Test Description: NCI In Vivo Anticancer Drug Screen. Data for tumor model L1210 Leukemia (intraperitoneal) in B6D2F1 (BDF1) mice
Setup Conditions: endpoint: mean survival time; dose: 100.0 mg/kg/injection; schedule: Q04DX002 (ip); vehicle: saline; higher = longer survival
Inconclusive results and toxic doses are left out.
Quantity Measured: T/C

Looking up CCOC(=O)CCC(N)C(=O)O (stereo unspecified) , I see its T/C listed as 110 % of control

Looking up CCCC(C)(C)N , I see its T/C listed as 103 % of control

Looking up O=C(O)CN=CC(O)C(O)C(O)C(O)CO (stereo unspecified) , I see its T/C listed as 123 % of control

Looking up NC(CC(O)C(=O)O)C(=O)O (stereo unspecified) , I see its T/C listed as 101 % of control

We next turn to a different molecule, shown below.
Looking up Cc1nccn1-c1ccccc1N=Cc1ccc(N(CCCl)CCCl)cc1Cl , I see its T/C listed as 102 % of control

###

System: L1210 leukemia ip in BDF1 mice, survival T/C
Test Description: NCI In Vivo Anticancer Drug Screen. Data for tumor model L1210 Leukemia (intraperitoneal) in B6D2F1 (BDF1) mice
Setup Conditions: endpoint: mean survival time; dose: 100.0 mg/kg/injection; schedule: Q01DX009 (ip); vehicle: saline with Tween-80; higher = longer survival
Toxic doses and inconclusive results are not listed.
Each entry below carries its recorded T/C.

Worked cases, T/C given:
Looking up CCCn1c(O)c(C(=O)CC)sc1=S , I see its T/C listed as 88 % of control

Looking up CC(=O)Oc1cc(C)c(OC(C)=O)c(C)c1C , I see its T/C listed as 96 % of control

Looking up CC(=O)N1c2ccccc2Sc2cc(C(O)(C(F)(F)F)C(F)(F)F)ccc21 , I see its T/C listed as 95 % of control

Looking up O=C(Cc1ccccc1)c1ccccc1 , I see its T/C listed as 93 % of control

Looking up CC1(C)COC(c2ccccc2)=N1 , I see its T/C listed as 105 % of control

Looking up CC12CCC(CC1)C2CO (configuration not stated) , I see its T/C listed as 98 % of control

Looking up CN(C)C(=S)N=Nc1ccccc1 , I see its T/C listed as 100 % of control

Looking up Cc1ccc2ccccc2c1OC(C)C(=O)O (configuration not stated) , I see its T/C listed as 95 % of control

---
Looking up CC(C)(O)c1cccc(F)c1 , I see its T/C listed as 93 % of control

Looking up O=Cc1cc2ccccc2cc1O , I see its T/C listed as 94 % of control

Looking up Br/C=C(\Br)C[N+]12CN3CN(CN(C3)C1)C2 , I see its T/C listed as 96 % of control

Looking up N/N=C(\NN)c1ccccc1 , I see its T/C listed as 92 % of control

Looking up CCCCCCCCSCCC(=O)O , I see its T/C listed as 97 % of control

Looking up FC(F)(F)c1cccc(NC(=S)Nc2ccccc2S)c1 , I see its T/C listed as 103 % of control

Looking up O=C(Cn1ccc(O)cc1=O)c1ccco1 , I see its T/C listed as 108 % of control

Looking up O=[N+]([O-])CC1c2ccccc2Nc2ccccc21 , I see its T/C listed as 107 % of control

Looking up CC(=O)Nc1ccc(/C=N/NC(=O)CNC(=O)Nc2cccc(Cl)c2Cl)cc1 , I see its T/C listed as 90 % of control

Looking up CCCCOC(=O)/C=C/C(=O)OCCCC , I see its T/C listed as 97 % of control

Looking up c1ccc(C(Nc2ccnc3nc[nH]c23)c2ccccc2)cc1 , I see its T/C listed as 107 % of control

Looking up N#CC1(c2ccccc2)CC(C(=O)c2ccccc2)C(O)(c2ccccc2)CC1c1ccccc1 (configuration not stated) , I see its T/C listed as 108 % of control

Looking up Nc1nc(-c2ccccc2)cs1 , I see its T/C listed as 106 % of control

Looking up Cc1ccccc1OS(=O)(=O)c1ccccc1[N+](=O)[O-] , I see its T/C listed as 103 % of control

Looking up CNC(Cc1ccccc1)c1ccccc1 (configuration not stated) , I see its T/C listed as 99 % of control

Looking up CC(=O)OCN1C(=O)N(COC(C)=O)C(c2ccccc2)(c2ccccc2)C1=O , I see its T/C listed as 102 % of control

Looking up NC(N)=NCCCC(NC(=O)c1ccccc1)C(=O)Nc1ccc([N+](=O)[O-])cc1 (configuration not stated) , I see its T/C listed as 89 % of control

Looking up CCOc1ccc(Nc2c3ccccc3nc3ccccc23)cc1 , I see its T/C listed as 94 % of control

Looking up COC1/C=C\CC2=CCCC=C2CC1 (configuration not stated) , I see its T/C listed as 123 % of control

###

Each entry below carries its recorded T/C.
System: L1210 leukemia ip in BDF1 mice, survival T/C
Test Description: NCI In Vivo Anticancer Drug Screen. Data for tumor model L1210 Leukemia (intraperitoneal) in B6D2F1 (BDF1) mice
Setup Conditions: endpoint: mean survival time; dose: 10.0 mg/kg/injection; schedule: Q01DX001 (ip); vehicle: saline; higher = longer survival
Inconclusive results and toxic doses are left out.

Worked cases, T/C given:
Looking up CC(C)C(C)(O)C#N (stereo not drawn) , I see its T/C listed as 97 % of control

Looking up CNC1=C(N2CC2C)C(=O)C(NC)=C(N2CC2C)C1=O (stereo not drawn) , I see its T/C listed as 96 % of control

---
Looking up CCOP(=O)(OCC)Oc1ccc(SC)cc1 , I see its T/C listed as 98 % of control
